- target_or_test_system: Protein kinase C (PKC)
- run_description: Inhibition of protein kinase C (PKC)
- Type: protein assay
property_name: IC50 (µM)

1. N=C(N)NCCC[C@H](NC(=O)[C@H](CCCNC(=N)N)NC(=O)[C@H](CCCNC(=N)N)NC(=O)[C@H](CCCNC(=N)N)NC(=O)[C@H](CCCNC(=N)N)NC(=O)[C@H](CCCNC(=N)N)NC(=O)[C@H](CO)NC(=O)CCNCCNS(=O)(=O)c1cccc2cnccc12)C(=O)O : 0.3
2. NCCNS(=O)(=O)c1cccc2cnccc12 : 7

[a] O=S(=O)(c1cccc2cnccc12)N1CCNCC1
[b] CC1CNCCN1S(=O)(=O)c1cccc2cnccc12.Cl.Cl (stereo unspecified)
[c] COC(=O)CCNCCNS(=O)(=O)c1cccc2cnccc12
INPUT: Ordering: ascending IC50. Response field: labels, in requested order.
OUTPUT: b, a, c
